biological target: OGG1 (8-oxoguanine-DNA glycosylase) (Homo sapiens); assay: MST; details: N6 of strand 1 = tetrahydrofuran (F, abasic site analog), opposite G; MST: 50 mM Tris-HCl pH 7.5, 50 mM KCl, 1 mM EDTA, 1 mM DTT, 7% glycerol, 25 C, 10 min, 0.5 uM DNA; authors call Kd values estimates only
property_measured: Kd (nM)
Field format: number, assumed nM, no unit text.

Report measured Kd on OGG1 (8-oxoguanine-DNA glycosylase) (Homo sapiens); entry: GCTCANGTACAGAGCTG / CAGCTCTGTACGTGAGC [F/G] 2800

* * *

Biological target: NTH1 (endonuclease III) (Homo sapiens)
Sequence: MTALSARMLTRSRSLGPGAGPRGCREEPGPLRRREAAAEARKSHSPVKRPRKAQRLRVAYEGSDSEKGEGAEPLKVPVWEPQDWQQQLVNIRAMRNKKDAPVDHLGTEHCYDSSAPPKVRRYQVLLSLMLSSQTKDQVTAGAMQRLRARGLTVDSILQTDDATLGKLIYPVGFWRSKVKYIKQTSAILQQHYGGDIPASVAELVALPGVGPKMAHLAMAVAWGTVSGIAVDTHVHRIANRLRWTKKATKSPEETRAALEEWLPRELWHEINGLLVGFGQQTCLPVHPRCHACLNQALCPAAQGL
Experiment: MST
Conditions: N6 of strand 1 = tetrahydrofuran (F, abasic site analog), opposite G; MST: 50 mM Tris-HCl pH 7.5, 50 mM KCl, 1 mM EDTA, 1 mM DTT, 7% glycerol, 25 C, 10 min, 0.5 uM DNA; authors call Kd values estimates only
property_measured: pKd
Answer as the number alone; pKd is minus log10 of concentration in mol/L.

In one line, give reported pKd of the entry GCTCANGTACAGAGCTG / CAGCTCTGTACGTGAGC [F/G] . 6.52
